Target: HLA-B*15:01
Test: IEDB peptide-MHC binding, purified MHC/direct/fluorescence; filed as Kd, often an IC50 or EC50 that approximates it; bounds were set here for any values at or beyond the usual limits of such assays
Conditions: source organism: Influenza A virus (A/Viet Nam/HN/2004(H5N1))

{"itemSequence": "ERNEQGQTL", "Kd": "≥ 20 µM"}

====

Biological target: HLA-A*11:01
Assay: IEDB peptide-MHC binding, purified MHC/direct/fluorescence; filed as Kd, often an IC50 or EC50 that approximates it; bounds were set here for any values at or beyond the usual limits of such assays
Settings: source organism: Vibrio cholerae
valueKind: Kd

{"itemSequence": "EGIEGRIAY", "measuredResult": "≥ 20 µM"}

====

Biological target: HLA-A*02:01
Assay: IEDB peptide-MHC binding, purified MHC/competitive/radioactivity; filed as Kd, often an IC50 or EC50 that approximates it; bounds were set here for any values at or beyond the usual limits of such assays
Settings: source organism: Vaccinia virus WR
pKd: −log10 of the molar value.
valueKind: pKd

{"itemSequence": "RLLIWAYLSK", "target": "HLA-A*02:01", "valueKind": "pKd", "limitSign": "=", "measuredResult": 5.30}
{"itemSequence": "VLPFDIKYI", "target": "HLA-A*02:01", "valueKind": "pKd", "limitSign": "=", "measuredResult": 7.82}
{"itemSequence": "TVLGLGLSLK", "target": "HLA-A*02:01", "valueKind": "pKd", "limitSign": "≤", "measuredResult": 4.16}

====

Biological target: HLA-B*40:01
Test: IEDB peptide-MHC binding, purified MHC/direct/fluorescence; filed as Kd, often an IC50 or EC50 that approximates it; bounds were set here for any values at or beyond the usual limits of such assays
Details: source organism: Escherichia coli O157:H7
pKd: −log10 of the molar value.

{"itemSequence": "LDKGKLWHL", "pKd": "≤ 4.70"}
{"itemSequence": "LQLTAVFAY", "pKd": "≤ 4.70"}
{"itemSequence": "KTTIKFHPW", "pKd": "≤ 4.70"}
{"itemSequence": "RVNKGTGVK", "pKd": "≤ 4.70"}

====

Biological target: HLA-B*48:01
Experiment: IEDB peptide-MHC binding, purified MHC/direct/fluorescence; filed as Kd, often an IC50 or EC50 that approximates it; bounds were set here for any values at or beyond the usual limits of such assays
Settings: source organism: Mammarenavirus lassaense

{"itemSequence": "KRASPILRF", "Kd": "≥ 20 µM"}

====

Target: HLA-B*48:01
Test: IEDB peptide-MHC binding, purified MHC/direct/fluorescence; filed as Kd, often an IC50 or EC50 that approximates it; bounds were set here for any values at or beyond the usual limits of such assays
Conditions: source organism: Yellow fever virus
pKd: −log10 of the molar value.
Here, each record is paired with measured pKd data.
valueKind: pKd

{"itemSequence": "YFHKRDMRL", "measuredResult": "≤ 4.70"}
{"itemSequence": "EVRLATMLF", "measuredResult": "≤ 4.70"}

====

Target: HLA-B*57:01
Experiment: IEDB peptide-MHC binding, purified MHC/competitive/fluorescence; filed as Kd, often an IC50 or EC50 that approximates it; bounds were set here for any values at or beyond the usual limits of such assays
Settings: source organism: Vibrio cholerae 2740-80

{"itemSequence": "CERYGFPAS", "Kd": "≥ 20 µM"}

====

Biological target: HLA-B*08:01
Test: IEDB peptide-MHC binding, purified MHC/direct/fluorescence; filed as Kd, often an IC50 or EC50 that approximates it; bounds were set here for any values at or beyond the usual limits of such assays
Conditions: source organism: Mycobacterium tuberculosis str. Haarlem

{"itemSequence": "KLVGIELPK", "target": "HLA-B*08:01", "Kd": "≥ 20 µM"}

====

Target: HLA-A*26:01
Assay: IEDB peptide-MHC binding, purified MHC/competitive/fluorescence; filed as Kd, often an IC50 or EC50 that approximates it; bounds were set here for any values at or beyond the usual limits of such assays
Details: source organism: Orthomarburgvirus marburgense

{"itemSequence": "ARHGEYAPF", "Kd [µM]": 4}

====

Biological target: HLA-B*54:01
Test: IEDB peptide-MHC binding, purified MHC/competitive/radioactivity; filed as Kd, often an IC50 or EC50 that approximates it; bounds were set here for any values at or beyond the usual limits of such assays
Settings: source organism: Mammarenavirus whitewaterense

{"itemSequence": "GPFEASWAI", "Kd": "311 nM"}

====

Biological target: HLA-A*23:01
Test: IEDB peptide-MHC binding, purified MHC/competitive/fluorescence; filed as Kd, often an IC50 or EC50 that approximates it; bounds were set here for any values at or beyond the usual limits of such assays
Conditions: source organism: Cryptosporidium parvum Iowa II

{"itemSequence": "TFMGMNVQF", "unitOfMeasure": "nM", "Kd": 1.2}

====

Molecular target: HLA-A*31:01
Assay: IEDB peptide-MHC binding, purified MHC/competitive/radioactivity; filed as Kd, often an IC50 or EC50 that approximates it; bounds were set here for any values at or beyond the usual limits of such assays
Conditions: source organism: Lymphocytic choriomeningitis virus (strain Armstrong)
pKd: −log10 of the molar value.

{"itemSequence": "VTMFEALPH", "pKd": "≤ 4.11"}

====

Molecular target: HLA-B*46:01
Assay: IEDB peptide-MHC binding, purified MHC/competitive/fluorescence; filed as Kd, often an IC50 or EC50 that approximates it; bounds were set here for any values at or beyond the usual limits of such assays
Conditions: source organism: Orthohantavirus negraense
pKd: −log10 of the molar value.

{"itemSequence": "RRFTQAIYD", "target": "HLA-B*46:01", "pKd": "≤ 4.70"}

====

Below, each entry is listed with its recorded Kd.
Biological target: HLA-B*15:17
Test: IEDB peptide-MHC binding, purified MHC/direct/fluorescence; filed as Kd, often an IC50 or EC50 that approximates it; bounds were set here for any values at or beyond the usual limits of such assays
Details: source organism: Vibrio vulnificus
valueKind: Kd (nM)

{"itemSequence": "IEFIEVVRL", "limitSign": "≥", "measuredResult": 20000}
{"itemSequence": "YQRALHTSI", "limitSign": "=", "measuredResult": 130}

====

Biological target: HLA-B*07:02
Test: IEDB peptide-MHC binding, purified MHC/direct/fluorescence; filed as Kd, often an IC50 or EC50 that approximates it; bounds were set here for any values at or beyond the usual limits of such assays
Conditions: source organism: Campylobacter jejuni RM1221

{"itemSequence": "KNDAVYIGY", "Kd": "≥ 20 µM"}

====

Molecular target: HLA-A*31:01
Test: IEDB peptide-MHC binding, purified MHC/competitive/radioactivity; filed as Kd, often an IC50 or EC50 that approximates it; bounds were set here for any values at or beyond the usual limits of such assays
Conditions: source organism: Vaccinia virus WR
pKd: −log10 of the molar value.
Recorded pKd for the following sequences
valueKind: pKd

{"itemSequence": "AVVADLSAR", "measuredResult": 7.58}
{"itemSequence": "NVISSKISY", "measuredResult": 5.30}
{"itemSequence": "ILHAYCGIK", "measuredResult": 5.58}
{"itemSequence": "QAIEPSGNNY", "measuredResult": 5.46}
{"itemSequence": "VSIILANER", "measuredResult": 6.89}
{"itemSequence": "SAKQLRTRIR", "measuredResult": 5.96}
{"itemSequence": "PSTVKTNLY", "measuredResult": 5.21}
{"itemSequence": "LLIWAYLSK", "measuredResult": 4.95}
{"itemSequence": "DLVKSSFVK", "measuredResult": 7.03}
{"itemSequence": "SMNVAVIDK", "measuredResult": 6.21}
{"itemSequence": "TFIMLEGETK", "measuredResult": 6.09}
{"itemSequence": "TVLGLGLSLK", "measuredResult": 6.05}
{"itemSequence": "GLSETGFMR", "measuredResult": 7.07}

====

Target: HLA-A*02:03
Experiment: IEDB peptide-MHC binding, purified MHC/competitive/radioactivity; filed as Kd, often an IC50 or EC50 that approximates it; bounds were set here for any values at or beyond the usual limits of such assays
Settings: source organism: Mammarenavirus guanaritoense

{"itemSequence": "WSAIFFTTSL", "Kd": "6.99 µM"}

====

Biological target: HLA-A*02:06
Assay: IEDB peptide-MHC binding, purified MHC/competitive/radioactivity; filed as Kd, often an IC50 or EC50 that approximates it; bounds were set here for any values at or beyond the usual limits of such assays
Settings: source organism: Vaccinia virus WR
pKd: −log10 of the molar value.
# pKd per record follows
valueKind: pKd

{"itemSequence": "CTNDIYCDEI", "limitSign": "=", "measuredResult": 5.32}
{"itemSequence": "ALAEHISDSI", "limitSign": "=", "measuredResult": 6.79}
{"itemSequence": "FVLALYSPPL", "limitSign": "=", "measuredResult": 6.67}
{"itemSequence": "MVTDKTAYI", "limitSign": "=", "measuredResult": 7.60}
{"itemSequence": "SLETVKMGA", "limitSign": "≤", "measuredResult": 4.63}
{"itemSequence": "DTIAHINTL", "limitSign": "=", "measuredResult": 4.95}
{"itemSequence": "LAISAVYFKA", "limitSign": "=", "measuredResult": 6.18}
{"itemSequence": "STFNMWREIL", "limitSign": "=", "measuredResult": 5.47}
{"itemSequence": "QTGINNVQSL", "limitSign": "≤", "measuredResult": 4.27}
{"itemSequence": "IAVSVYGAIT", "limitSign": "=", "measuredResult": 4.84}
{"itemSequence": "VIRHVDGKIL", "limitSign": "≤", "measuredResult": 4.16}
